readoutLabel: melting point

CC(C)[C@H](S)C(=O)NC1(C(=O)NC(Cc2cc(-c3ccccc3)cs2)C(=O)O)CCCC1 (stereo partly drawn) :: 158 to 164 °C
CC(C)C[C@H](NC(=O)[C@@H](S)CC(C)C)C(=O)N[C@@H](Cc1ccc(-c2cccs2)nc1)C(=O)O (stereo in doubt) :: 156 to 158 °C
CC[C@H](C)[C@H](S)C(=O)NC1(C(=O)NC(Cc2ccc(-c3ccccc3)s2)C(=O)O)CCCC1 (stereo in doubt) :: 131 to 133 °C
CC(C)C[C@H](S)C(=O)NC(C)(C)C(=O)N[C@@H](Cc1ccc(-c2cccs2)nc1)C(=O)O (stereo in doubt) [Example 2(z)] :: 194 to 196 °C
CSCC[C@H](S)C(=O)NC1(C(=O)NC(Cc2ccc(-c3ccco3)nc2)C(=O)O)CCCC1 (stereo in doubt) :: 195 to 197 °C
CSCC[C@H](S)C(=O)NC1(C(=O)NC(Cc2ccc(-c3cccs3)nc2)C(=O)O)CCCC1 (stereo in doubt) [Example 2(r)] :: 175 to 177 °C
O=C(NC1(C(=O)N[C@@H](Cc2ccc(-c3cccs3)nc2)C(=O)O)CCCC1)C(S)Cc1ccc(O)cc1 (stereo in doubt) :: 219 to 220 °C
CC(C)C[C@H](S)C(=O)N[C@@H](Cc1ccc(Br)nc1)C(=O)N[C@@H](Cc1ccc(-c2cccs2)nc1)C(=O)O (stereo in doubt) :: 194 to 195 °C

Kindly review the next compound as well.
Query block: // lookup melting point for Cc1nc(-c2ccccc2)oc1CC(NC(=O)C1(NC(=O)[C@@H](S)C(C)C)CCCC1)C(=O)O (stereo in doubt) [Example 1(e)]
Result block: 227 to 229 °C

====

compounds and their reported melting point

Query block: // lookup melting point for Cc1noc(C)c1-c1nc(CC(NC(=O)C2(NC(=O)[C@@H](S)CC(C)C)CCCC2)C(=O)O)no1 (stereo in doubt) [Example 1(h)]
Result block: 151 to 153 °C

Query block: Entry to check: Cc1noc(C)c1-c1nc(CC(NC(=O)C2(NC(=O)[C@@H](S)C(C)C)CCCC2)C(=O)O)no1 (stereo in doubt) [Example 1(g)]
Result block: 170 to 172 °C

Query block: Entry to check: CC(C)C[C@H](S)C(=O)NC1(C(=O)NC(Cc2ccc(-c3ccoc3)nc2)C(=O)O)CCCC1 (stereo in doubt) [Example 2(dd)]
Result block: 190 to 193 °C

====

readoutLabel: melting point

Below are worked cases with known answers.
CC(C)C[C@H](S)C(=O)NC1(C(=O)NC(Cc2ccc(-c3ccco3)nc2)C(=O)O)CCCC1 (stereo in doubt) :: 200 to 202 °C
CSCCC(S)C(=O)NC1(C(=O)NC(Cc2ccc(-c3ccoc3)nc2)C(=O)O)CCCC1.Cl (stereo not drawn) :: 150 to 153 °C
CC(C)C[C@H](S)C(=O)NC1(C(=O)NC(Cc2ccc(-c3cccnc3)nc2)C(=O)O)CCCC1 (stereo in doubt) :: 165 to 168 °C
CC(C)C[C@H](S)C(=O)NC1(C(=O)N[C@@H](Cc2cnc(-c3ccc(F)c(Cl)c3)s2)C(=O)O)CCCC1 (stereo in doubt) :: 96 to 98 °C
O=C(O)[C@H](Cc1ccc(-c2ccsc2)nc1)NC(=O)C1(NC(=O)[C@@H](S)Cc2ccccc2)CCCC1 (stereo in doubt) :: 208 to 209 °C

Query block: // lookup melting point for CC(C)C[C@H](S)C(=O)N[C@@H](Cc1ccccc1)C(=O)N[C@@H](Cc1ccc(-c2cccs2)nc1)C(=O)O
Result block: 209 to 210 °C

Query block: Entry to check: CC(C)C[C@H](S)C(=O)NC1(C(=O)NC(Cc2ccc(-c3nccs3)nc2)C(=O)O)CCCC1 (stereo in doubt)
Result block: 185 to 187 °C

Query block: Entry to check: O=C(O)C(Cc1cc(-c2ccccc2)cs1)NC(=O)C1(NC(=O)[C@@H](S)Cc2ccccc2)CCCC1 (stereo in doubt)
Result block: 133 to 136 °C

Query block: Entry to check: CC(C)C[C@H](S)C(=O)NC(C)(C)C(=O)N[C@@H](Cc1ccc(-c2ccsc2)nc1)C(=O)O (stereo in doubt)
Result block: 218 to 220 °C

Query block: Entry to check: CCCC(S)C(=O)NC1(C(=O)NC(Cc2ccc(-c3cccs3)nc2)C(=O)O)CCCC1.Cl (stereo not drawn)
Result block: 165 to 167 °C

Query block: Entry to check: CC[C@H](C)C(S)C(=O)NC1(C(=O)NC(Cc2ccc(-c3ccsc3)nc2)C(=O)O)CCCC1 (stereo in doubt)
Result block: 200 to 202 °C

Query block: Entry to check: CC(C)C[C@H](S)C(=O)N[C@@H](Cc1ccc(-c2cccs2)nc1)C(=O)N[C@@H](Cc1ccc(-c2cccs2)nc1)C(=O)O (stereo in doubt)
Result block: 210 to 212 °C
